- MEASUREMENT PROTOCOL: Inhibition of full-length native sheep brain dynamin 1 assessed as reduction in PS liposomes-induced GTPase activity using 20 nM full-length dynamin 1
- Design: species or system Ovis aries
pIC50: −log10 of the molar value.
EXPERIMENTAL READOUT: pIC50

INSERT INTO assay_data (structure_as_smiles, experimental_readout, measured_value) VALUES
  ('N=c1oc2cc(O)c(O)cc2cc1C(=O)NCCNC(=O)c1cc2cc(O)c(O)cc2oc1=N', 'pIC50', 6.48),
  ('N=c1oc2c(O)cccc2cc1C(=O)NCCCNC(=O)c1cc2cccc(O)c2oc1=N', 'pIC50', 4.44),
  ('N=c1oc2cc(O)ccc2cc1C(=O)NCCCNC(=O)c1cc2ccc(O)cc2oc1=N', 'pIC50', 4.76),
  ('N=c1oc2cc(O)c(O)cc2cc1C(=O)NCCCNC(=O)c1cc2cc(O)c(O)cc2oc1=N', 'pIC50', 6.59),
  ('N=c1oc2c(O)c(O)ccc2cc1C(=O)NCCCNC(=O)c1cc2ccc(O)c(O)c2oc1=N', 'pIC50', 6.35);

###

- MEASUREMENT PROTOCOL: Inhibition of full-length native sheep brain dynamin 1 assessed as reduction in PS liposomes-induced GTPase activity in absence of tween-80 using 7 nM full-length dynamin 1
- Parameters: species or system Ovis aries
pIC50: −log10 of the molar value.
I would appreciate it if you labelled entries Fulfilled when pIC50 is 5 or higher, otherwise Not fulfilled.

INSERT INTO results (structure_as_smiles, category) VALUES
  ('O=C(N/N=C/c1cccc(O)c1O)c1cc2ccccc2cc1O', 'Not fulfilled'),
  ('COc1cc(/C=N/NC(=O)c2cc3ccccc3cc2O)c(O)cc1O', 'Fulfilled'),
  ('O=C(N/N=C/c1ccc(O)c(O)c1O)c1cc2ccccc2cc1O', 'Fulfilled'),
  ('O=C(N/N=C/c1cc(O)cc(O)c1)c1cc2ccccc2cc1O', 'Not fulfilled'),
  ('O=C(N/N=C/c1cc(O)c(O)c(O)c1)c1cc2ccccc2cc1O', 'Fulfilled');

###

- Species: Ovis aries
- MEASUREMENT PROTOCOL: Ring stabilizer activity at full-length native sheep brain dynamin 1 assessed as stimulation of GTPase activity in absence of PS liposomes and in presence of tween-80
Active and inactive are the calls of the source. The rule behind the calls is not given here.
Labels: label 1 = active, label 0 = inactive

INSERT INTO measurements (structure_as_smiles, category) VALUES
  ('CCCCCCNC(=O)/C(C#N)=C/c1c(C)n(CCCN(C)C)c2ccccc12', 'label 1'),
  ('CCCCCCNC(=O)/C(C#N)=C/c1c(C)n(CCN(C)C)c2ccccc12', 'label 1'),
  ('CCCCCCCCNC(=O)/C(C#N)=C/c1c(C)n(CCN(C)C)c2ccccc12', 'label 1'),
  ('CCCCCCCCCCCCCCCCCC[N+](C)(C)C', 'label 1'),
  ('CCCCCCCCCCNC(=O)/C(C#N)=C/c1cn(CCN(C)C)c2ccccc12', 'label 1'),
  ('N#C/C(=C\c1cc(O)c(O)c(O)c1)C(=O)NCCCNC(=O)/C(C#N)=C/c1cc(O)c(O)c(O)c1', 'label 1'),
  ('N#C/C(=C\c1ccc(O)c(O)c1)C(=O)NCCCNC(=O)/C(C#N)=C/c1ccc(O)c(O)c1', 'label 1'),
  ('O=C(N/N=C/c1cc(O)c(O)cc1O)c1cc2ccccc2cc1O', 'label 0'),
  ('CCCCCCCCNC(=O)/C(C#N)=C/c1cn(CCCN(C)C)c2ccccc12', 'label 1');
